TESTED ON: glucosylceramide synthase (Homo sapiens)
Construct: Microsomes were isolated from A375 human melanoma cells; endogenous in cells
Sequence (Q16739 1-394): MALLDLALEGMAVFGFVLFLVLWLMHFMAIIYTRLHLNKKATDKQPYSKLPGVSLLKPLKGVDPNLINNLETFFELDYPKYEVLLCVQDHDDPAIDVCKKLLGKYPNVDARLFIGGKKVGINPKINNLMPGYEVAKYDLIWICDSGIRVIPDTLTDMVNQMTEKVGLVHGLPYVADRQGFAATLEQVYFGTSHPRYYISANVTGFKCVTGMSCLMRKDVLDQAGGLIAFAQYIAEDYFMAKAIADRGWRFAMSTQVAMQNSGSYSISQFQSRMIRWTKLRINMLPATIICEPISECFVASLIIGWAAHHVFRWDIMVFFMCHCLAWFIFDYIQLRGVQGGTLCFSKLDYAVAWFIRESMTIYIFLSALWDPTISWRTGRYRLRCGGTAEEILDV
PROTOCOL: microsomal assay measuring conversion of ceramide to glucosylceramide by HPLC (GCS IC50)
DETAILS: concentration causing 50% inhibition of glucosylceramide synthase activity
Hi! Just check whether IC50 is below 4 nM. Below gives satisfied, equal or above gives not satisfied.

Here's an entry: CC(C)(NC(=O)OC1CCN2CCC1CC2)c1ccc(-c2ccc(C(=O)N3CC(F)(F)C3)cc2)cc1 (centres unmarked) . Is its IC50 below 4 nM?
not satisfied

IC50 under 4 nM? Item: COCCOc1ccc(-c2ccc(C3(NC(=O)NC4(C)CCN5CCC4CC5)CC3)cc2)cc1 (centres unmarked)
not satisfied

I wonder whether COCCOc1ccc(-c2ccc(C(C)(C)NC(=O)OC3CN4CCC3CC4)cc2)cc1 (centres unmarked) has IC50 below 4 nM. Can you tell?
satisfied

Is the reported IC50 for CN(C)C(=O)c1ccc(-c2ccc(C(C)(C)NC(=O)OC3CN4CCC3CC4)cc2)cc1 (centres unmarked) strictly below 4 nM?
not satisfied

# check: IC50 < 4 nM for CC1(NC(=O)C2CCN(c3cc(-c4ccc(F)cc4)ccn3)CC2)CCN2CCC1CC2 (centres unmarked)
satisfied

Find out if reported IC50 for O=C(NC1CCN2CCC1CC2)N1CCN(c2cccc(-c3ccccc3)c2)CC1 (centres unmarked) is less than 4 nM
not satisfied

Please indicate whether the reported IC50 of CC(C)(NC(=O)NC1(C)CCN2CCC1CC2)c1ccc(-c2ccc(N3CCOCC3)cc2)cc1 (centres unmarked) is strictly below 4 nM.
not satisfied

###

Could you please report measured IC50 for the items listed next?
TESTED ON: glucosylceramide synthase (Homo sapiens)
Construct: Microsomes were isolated from A375 human melanoma cells; endogenous in cells
Sequence (Q16739 1-394): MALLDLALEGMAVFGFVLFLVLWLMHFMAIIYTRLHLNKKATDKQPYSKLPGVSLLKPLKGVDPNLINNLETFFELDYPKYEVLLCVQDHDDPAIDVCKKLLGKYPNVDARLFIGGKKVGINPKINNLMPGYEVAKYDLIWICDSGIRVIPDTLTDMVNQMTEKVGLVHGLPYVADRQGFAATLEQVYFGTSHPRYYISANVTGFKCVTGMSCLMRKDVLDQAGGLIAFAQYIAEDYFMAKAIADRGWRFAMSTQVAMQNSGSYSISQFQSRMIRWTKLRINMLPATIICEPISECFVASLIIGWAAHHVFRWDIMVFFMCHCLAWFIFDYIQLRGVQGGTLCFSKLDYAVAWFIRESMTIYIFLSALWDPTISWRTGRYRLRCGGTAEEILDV
PROTOCOL: microsomal assay measuring conversion of ceramide to glucosylceramide by HPLC (GCS IC50)
DETAILS: concentration causing 50% inhibition of glucosylceramide synthase activity
Give a bare numeral; the unit µM is implied.

I'd like to know its IC50. The compound in question is CCC1(NC(=O)NC(C)(C)C#Cc2ccc(CCOC)cc2)CN2CCC1CC2 (stereo not shown) [Example 325]
0.092

May I ask what IC50 has been recorded for CCC1(NC(=O)NC(C)(C)c2ccc(-c3ccc(S(=O)(=O)CCC(C)(C)C)cc3)cc2)CN2CCC1CC2 (stereo not shown) [Example 247] ?
0.00166

What IC50 value was documented for this compound, CC1(NC(=O)C2(F)CCN(c3cncc(Oc4ccc(F)cc4)n3)CC2)CCN2CCC1CC2 (stereo not shown) [Example 126] ?
0.00157

Reported IC50 for O=C(NC1CN2CCC1CC2)N1CCN(c2ccc(-c3ccccc3)cc2)CC1 (stereo not shown) [Example 2] : what is it?
6.93
